System: Caco-2
TEST_NAME: cell viability relative to DMSO; higher = less toxic
CONDITION_DESCRIPTION: 72 h; 10 nM
OUTCOME_MEASURE: cell viability (%)
Write the value in % as a bare number.

                                   compound  outcome_measure  measured
0  O=C(OCC(O)CO)c1ccccc1Nc1ccnc2c(C(F)(F)F)cccc12 (stereo not drawn) [floctafenine]   cell viability      90.2

If you can, please state the reported cell viability value of `CN1CCN(C(=O)c2nc3ccc(Cl)cc3[nH]2)CC1` .
100

If you can, please state the reported cell viability value of Oc1ccc(OCc2ccccc2)cc1 [monobenzone] .
92.6

If you can, please state the reported cell viability value of O=C(CNC(=O)c1ccc(Cl)cc1)NO [benurestat] .
98.5

If you can, please state the reported cell viability value of O=C(O)c1cccc(-c2noc(-c3ccccc3F)n2)c1 [ataluren] .
101

If you can, please state the reported cell viability value of CCOC(=O)Nc1ccc2c(c1)N(C(=O)CCN(CC)CC)c1ccccc1S2 [ethacizin] .
82.9
